biological target: MS2 coat protein, dlFG mutant (Escherichia phage MS2, UniProt P03612, del68-81insG); experiment: 4 mM Mg2+; theophylline 2 mM; RNA-MaP array; 100 mM Tris-HCl pH 7.5, 80 mM KCl, 4 mM MgCl2, 0.1 mg/mL BSA, 1 mM DTT, 0.01 mg/mL yeast tRNA, 0.01% Tween-20; protein 1.5 nM to 3 uM; 37 C (Table S3); details: chain copies: 2; label: tethered by stalled RNA polymerase
Value Kind: Kd

binder="Eterna 7639661 (Exclusion - Theophylline B) (ssRNA) RNA: AUUUAUAGUUGUGAUACCAGACUUACAUGAGGAUCACCCAUGUUACUUAAAUGUUUUGAUGUCCCUUGGCAGCACUGUUUUUUUA" result="14 nM"
binder="Eterna 7618834 (Exclusion - Theophylline A) (ssRNA) RNA: AGACAUGAGGAUCACCCAUGUAGUAUGGAUACCAGAUCCAGAUUUAUCCCUUGGCAGCUGUGGUACAGCGUUGGAUCGCUCCUAG" result="29.4 nM"
binder="Eterna 7636321 (Exclusion - Theophylline B) (ssRNA) RNA: CAUUAUGUAACUGAUACCAGUGUACUGACAUGAGGAUCACCCAUGUUGGGUUUUGUUGUACACCCUUGGCAGCAGAAUCAUAAUG" result="90.9 nM"
binder="Eterna 7687214 (Same State - Theophylline B) (ssRNA) RNA: UCGUGUAUAUCGGAUACCAGUGAAAACGAUACAUGAGGAUCACCCAUGUGAGUUGAUGUACACCCUUGGCAGCUGUAUAUAUCUA" result="15.1 nM"

Could you now look at the following binder, please?
So what's the measured Kd for this one? Eterna 7629678 (Same State - Theophylline A) (ssRNA) RNA: UUCUACAUGAGGAUCACCCAUGUAAACGAUACCAGACGAGUAUUAGUCCCUUGGCAGCGUAGAGUGUCGUUUAUAGUAGGAUACC
28.4 nM
